Values from paper PMC12864922

Below, each entry is listed alongside its reported binding signal.
# target under test: TDP-43 (Homo sapiens, UniProt Q13148 1-414)
# Sequence (Q13148 whole entry): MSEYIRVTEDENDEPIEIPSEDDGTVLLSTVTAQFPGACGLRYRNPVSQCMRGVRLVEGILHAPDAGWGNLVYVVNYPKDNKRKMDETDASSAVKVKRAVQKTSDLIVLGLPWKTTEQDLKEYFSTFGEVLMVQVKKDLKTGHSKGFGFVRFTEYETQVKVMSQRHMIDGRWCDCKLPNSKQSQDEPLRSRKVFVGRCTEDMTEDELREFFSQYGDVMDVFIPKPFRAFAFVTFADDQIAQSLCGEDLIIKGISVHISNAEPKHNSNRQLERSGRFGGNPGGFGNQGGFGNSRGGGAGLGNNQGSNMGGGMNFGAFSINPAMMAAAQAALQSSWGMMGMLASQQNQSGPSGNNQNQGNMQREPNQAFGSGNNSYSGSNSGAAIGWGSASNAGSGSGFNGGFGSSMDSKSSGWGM
# procedure details: RNA Bind-n-Seq with designed 260-mer pool; 25 mM Tris-HCl, 150 mM KCl, 3 mM MgCl2, BSA (printed 500 mg/mL), 20 units/mL SUPERase IN; pH not stated; 500 nM RNA pool, 1 h, 4 C; TDP-43 5, 50, 500 nM; high values mean tight binding
# settings: protein: recombinant; tags: SBP (GST cleaved off with PreScission; pGEX-GST-SBP)
Over roughly 9,900 sequences, “r (bound/input frequency ratio)” has its median near 0.7; the highest 2% begin near 6.5. The entries come from a sample that favours the highest values as a whole.
observed property: binding signal

[[record]]
binder = "ENSMUSG00000028439.188|Fam219a (ssRNA) RNA: GGGAGUUCUACAGUCCGACGAUCGCUUCGAUAUCCGCAUGCUAUGUGUGUGUGUGUGUGUUGUACCCGAGUGUGUGUUGAGCCUAUCUGUCCAGGGAACCAGAUUGGUGUCCGAGAUGAGGAAAUGGCUGUGGCCUGGGAAAUCAGUGAGAGGCCGCUUGGGAAUGAGAAUGCAGUGGACUGAAAGCACAGCCUGGCCAUCUGGAACCUGGGUUCUGGUCCCAGCCUCGGCAUUCUCCCUGAGCUCCUAAGCAAUUCCCAGGCUUCUCUAGGGCUUCAGUUCUCACAACUGGAAAAUAAAGAGCUCUUGCGGUCGCACUAGUGUGGAAUUCUCGGGUGUCAAGG"
result = "4.17 R (bound/input frequency ratio)"

[[record]]
binder = "ENSMUSG00000028439.185|Fam219a (ssRNA) RNA: GGGAGUUCUACAGUCCGACGAUCGCUUCGAUAUCCGCAUGCUAUGUGUGUAUGUGUGUGCGUGUGUGUGUGUGUGUGUUGUACCCGAGUGUGUGUUGAGCCUAUCUGUCCAGGGAACCAGAUUGGUGUCCGAGAUGAGGAAAUGGCUGUGGCCUGGGAAAUCAGUGAGAGGCCGCUUGGGAAUGAGAAUGCAGUGGACUGAAAGCACAGCCUGGCCAUCUGGAACCUGGGUUCUGGUCCCAGCCUCGGCAUUCUCCCUGAGCUCCUAAGCAAUUCCCAGGCUUCUCUAGGGCUUCAGUUCUCACUCUUGCGGUCGCACUAGUGUGGAAUUCUCGGGUGUCAAGG"
result = "7.73 R (bound/input frequency ratio)"

[[record]]
binder = "ENSMUSG00000032194.151|Kank2|256:260 (ssRNA) RNA: GGGAGUUCUACAGUCCGACGAUCGCUUCGAUAUCCGCAUGCUAACUUCUAGAAAUACUUUCAGACCUACAGACAAAAAAGAAAAAAGGCCAUUCCGGAGUGACUCCCAGCAUCACAGCCCAGAACCUCCUCCUCAAAGGAGAGUAAACAGAGACUGUGAUACUGACCAAGUACAGGCGCUCGCUAUGAAGCCCAUAUGUUCCUGAUUAAGAGCUGGCUGGCCUCAGAGCACUCCCAGAACUAGCUUAAAGUGACAGGCUUUGCUGAAAUCCAAAGGGACAAAAGAGUAGUUUUAUGUUACACACUCUUGCGGUCGCACUAGUGUGGAAUUCUCGGGUGUCAAGG"
result = "0.163 R (bound/input frequency ratio)"

[[record]]
binder = "ENSMUSG00000058297.310|Spock2 (ssRNA) RNA: GGGAGUUCUACAGUCCGACGAUCGCUUCGAUAUCCGCAUGCUAGCAGCUAGCUACUGGGGACCUUGUGCUGAGGCUUCCAGGACAAAGCCCCAGUCUGGCUCUCCCCCAGCCUCUCAGGGGCACUGGCUGGUCACAUCCACUGAGUAUUGAUCGGUUGGACUUUAGGGAAGAGCCUCCUCCUUCCCAUUCCUUUCUGCCACCCUGGAAUGGCCACCUUAAUCGUCAUCUCCUCGGGGGGAAUACGGAAAUGUCACCAAGCUCCAUAAAGUGCUUCUCAUUCCACGACACAGUUCUGACUCUCCCUCUUGCGGUCGCACUAGUGUGGAAUUCUCGGGUGUCAAGG"
result = "0.874 R (bound/input frequency ratio)"

[[record]]
binder = "ENSMUSG00000028439.184|Fam219a (ssRNA) RNA: GGGAGUUCUACAGUCCGACGAUCGCUUCGAUAUCCGCAUGCUAUGUGCGUGUGUGUAUGUGUGUGCGUGUGUGUGUGUGUGUGUUGUACCCGAGUGUGUGUUGAGCCUAUCUGUCCAGGGAACCAGAUUGGUGUCCGAGAUGAGGAAAUGGCUGUGGCCUGGGAAAUCAGUGAGAGGCCGCUUGGGAAUGAGAAUGCAGUGGACUGAAAGCACAGCCUGGCCAUCUGGAACCUGGGUUCUGGUCCCAGCCUCGGCAUUCUCCCUGAGCUCCUAAGCAAUUCCCAGGCUUCUCUAGGGCUUCAGCUCUUGCGGUCGCACUAGUGUGGAAUUCUCGGGUGUCAAGG"
result = "7.33 R (bound/input frequency ratio)"

[[record]]
binder = "ENSMUSG00000061578.501|Ksr2|23:28;195:201 (ssRNA) RNA: GGGAGUUCUACAGUCCGACGAUCGCUUCGAUAUCCGCAUGCUACUCCCAAGUGCUGGGAUUAAAGCACACAACCACCAUUGCAAUCUUGAACUCUUGACCAAUAGAAAUCCUAGACUAGUGUUGCUAGGCAACUGACUGUAUUCAGGACACCCAGGGUGGGAGGUGGAUGGAGCUCUUGCCUAACACACACCAAGCCCCAAGUUCCAUCCCCAGUCCCACACAAACCAGAUAUGAUGCACACACCCUAUGUCCCCCACACACGAGAGAGCUGGAGGCAGGAGGAUCAGAAGUUCAGGGCCAUCCUCUUGCGGUCGCACUAGUGUGGAAUUCUCGGGUGUCAAGG"
result = "6.59 R (bound/input frequency ratio)"

[[record]]
binder = "ENSMUSG00000028439.186|Fam219a (ssRNA) RNA: GGGAGUUCUACAGUCCGACGAUCGCUUCGAUAUCCGCAUGCUAUAUGUGUGUGCGUGUGUGUGUGUGUGUGUUGUACCCGAGUGUGUGUUGAGCCUAUCUGUCCAGGGAACCAGAUUGGUGUCCGAGAUGAGGAAAUGGCUGUGGCCUGGGAAAUCAGUGAGAGGCCGCUUGGGAAUGAGAAUGCAGUGGACUGAAAGCACAGCCUGGCCAUCUGGAACCUGGGUUCUGGUCCCAGCCUCGGCAUUCUCCCUGAGCUCCUAAGCAAUUCCCAGGCUUCUCUAGGGCUUCAGUUCUCACAACUGCUCUUGCGGUCGCACUAGUGUGGAAUUCUCGGGUGUCAAGG"
result = "6.13 R (bound/input frequency ratio)"

